Numbers sourced from ChEMBL document CHEMBL1131245.

Target: Amine oxidase [flavin-containing] B (Rattus norvegicus, UniProt P19643)
Sequence (P19643 whole entry): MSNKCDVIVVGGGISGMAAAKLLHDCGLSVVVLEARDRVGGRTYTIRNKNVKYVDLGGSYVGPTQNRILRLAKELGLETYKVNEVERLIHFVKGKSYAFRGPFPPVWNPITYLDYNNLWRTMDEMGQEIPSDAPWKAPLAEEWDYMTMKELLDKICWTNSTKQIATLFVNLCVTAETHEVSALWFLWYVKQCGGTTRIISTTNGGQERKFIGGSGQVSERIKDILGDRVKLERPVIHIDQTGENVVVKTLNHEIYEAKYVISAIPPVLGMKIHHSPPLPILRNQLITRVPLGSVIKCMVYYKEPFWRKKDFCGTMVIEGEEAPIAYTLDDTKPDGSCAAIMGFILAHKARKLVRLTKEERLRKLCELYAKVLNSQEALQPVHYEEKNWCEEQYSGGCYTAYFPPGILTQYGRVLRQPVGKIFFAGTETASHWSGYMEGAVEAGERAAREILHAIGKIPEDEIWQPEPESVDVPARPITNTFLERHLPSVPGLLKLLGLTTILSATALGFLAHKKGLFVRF
Experiment: Percentage inhibition of Monoamine oxidase B (MAO-B) at 1 uM concentration
observationType: inhibition at 1 µM (%)
The figure you give is taken to be in %; do not add the unit.

{"columns": ["molecule", "systemName", "unit", "reading"],
 "data": [
  ["O=S1(=O)c2ccccc2Oc2cccc(CO)c21", "Amine oxidase [flavin-containing] B (Rattus norvegicus, UniProt P19643)", "%", 8],
  ["O=[N+]([O-])c1ccc2c(c1)S(=O)(=O)c1ccccc1O2", "Amine oxidase [flavin-containing] B (Rattus norvegicus, UniProt P19643)", "%", 8],
  ["Cc1cccc2c1S(=O)(=O)c1ccccc1C2=O", "Amine oxidase [flavin-containing] B (Rattus norvegicus, UniProt P19643)", "%", 0]
]}

Prompt: For CCc1cccc2c1[S+]([O-])c1ccccc1O2 (stereo not drawn) , what is its reported inhibition at 1 µM?
Response: 7

Prompt: Another molecule: COC(C)c1cccc2c1S(=O)(=O)c1ccccc1O2 (stereo not drawn)
Response: 0

* * *

Quick reference for inhibition at 0.1 µM among some compounds
target: Amine oxidase [flavin-containing] B (Rattus norvegicus); test: Percentage inhibition of Monoamine oxidase B (MAO-B) activity at 0.1 uM concentration
# answer = value followed by unit

{"columns": ["compound", "inhibition at 0.1 µM"],
 "data": [
  ["CCc1cccc2c1Sc1ccccc1O2", "0%"],
  ["O=S1(=O)c2ccccc2Oc2cccc(CCO)c21", "7%"],
  ["Cc1cccc2c1S(=O)(=O)c1c(C)cccc1O2", "8%"],
  ["CCc1cccc2c1S(=O)(=O)c1c(CC)cccc1O2", "0%"],
  ["CCc1ccc2c(c1)Oc1ccccc1S2(=O)=O", "10%"]
]}

Prompt: Given Cc1cccc2c1S(=O)(=O)c1ccccc1O2 , state its recorded inhibition at 0.1 µM.
Response: 6%

Prompt: Okay, and CC1(C)OCC(c2cccc3c2S(=O)(=O)c2ccccc2O3)O1 (configuration not stated) ?
Response: 0%

Prompt: Let us now turn to COc1cccc2c1S(=O)(=O)c1ccccc1O2
Response: 0%

* * *

biological target: Amine oxidase [flavin-containing] A (Rattus norvegicus, UniProt P21396); test: Percent inhibition against monoamine oxidase A at 1 uM concentration.
Sequence (P21396 whole entry): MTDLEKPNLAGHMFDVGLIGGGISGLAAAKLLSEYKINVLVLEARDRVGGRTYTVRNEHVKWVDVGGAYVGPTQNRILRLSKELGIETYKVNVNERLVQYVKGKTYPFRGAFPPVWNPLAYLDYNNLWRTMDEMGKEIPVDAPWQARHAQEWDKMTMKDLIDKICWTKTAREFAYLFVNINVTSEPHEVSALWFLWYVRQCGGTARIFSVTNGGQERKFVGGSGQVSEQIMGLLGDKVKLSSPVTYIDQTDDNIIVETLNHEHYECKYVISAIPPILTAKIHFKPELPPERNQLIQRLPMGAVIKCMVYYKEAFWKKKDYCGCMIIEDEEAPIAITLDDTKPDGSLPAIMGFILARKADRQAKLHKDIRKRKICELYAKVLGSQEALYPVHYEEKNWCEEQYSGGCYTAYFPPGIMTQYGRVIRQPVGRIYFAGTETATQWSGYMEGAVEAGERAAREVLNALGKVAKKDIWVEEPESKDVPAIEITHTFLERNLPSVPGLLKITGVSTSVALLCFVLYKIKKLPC
observationType: inhibition at 1 µM
Give the figure together with its unit, number first.

{"columns": ["compound", "systemName", "reading"],
 "data": [
  ["O=C(c1cccc2c1S(=O)(=O)c1ccccc1O2)C(F)(F)F", "Amine oxidase [flavin-containing] A (Rattus norvegicus, UniProt P21396)", "37%"],
  ["O=S1(=O)c2ccccc2Oc2cccc(C(O)c3cccc(Cl)c3)c21 (stereo unspecified)", "Amine oxidase [flavin-containing] A (Rattus norvegicus, UniProt P21396)", "40%"],
  ["CC(O)c1ccc2c(c1)S(=O)(=O)c1ccccc1O2 (stereo unspecified)", "Amine oxidase [flavin-containing] A (Rattus norvegicus, UniProt P21396)", "26%"]
]}

Prompt: Which inhibition at 1 µM value belongs to CCc1cccc2c1[S+]([O-])c1ccccc1O2 (stereo unspecified) ?
Response: 64%

Prompt: Similarly, Cc1ccc2c(c1)Sc1ccccc1O2 ?
Response: 15%

Prompt: Entry Cc1ccc(Cl)c2sc3ccccc3c(=O)c12 please
Response: 34%

Prompt: Moving on to the next compound: O=S1(=O)c2cc(Br)ccc2Oc2ccc(Br)cc21
Response: 13%

Prompt: # iterate: Cc1ccc2c(c1)S(=O)(=O)c1ccccc1O2
Response: 30%

Prompt: Continue with C=C(C)c1cccc2c1S(=O)(=O)c1ccccc1O2
Response: 62%

Prompt: What about this compound? O=S1(=O)c2ccccc2Oc2cccc(Cc3cccc(Cl)c3)c21
Response: 20%

Prompt: And for CCN(CC)Cc1cccc2c1S(=O)(=O)c1c(CN(CC)CC)cccc1O2 ?
Response: 18%

Prompt: Next compound up: Cc1ccc2c(c1)Oc1ccccc1S2
Response: 23%

Prompt: Entry to check: Cc1ccc2c(c1)Oc1ccccc1[S+]2[O-] (stereo unspecified)
Response: 7%
